TEST_NAME: ATG_XTT_Cytotoxicity_XSP1: Cytotoxicity Assessment in the Attagene TRANS-FACTORIAL Multi-Species (XSP1) HepG2 Assay (AID 2283810)
Results filed as inconclusive are left out. The source made the active and inactive calls. The calls were made as follows: active = hit-call score of the fitted dose curve at least 0.9, where 1 is the maximum; inconclusive = response in the unintended direction; inactive = score below 0.9.
Use one of these outcomes when replying: yes for active, no for inactive

>  <COMPOUND>
CCCCOC(=O)c1ccccc1C(=O)OCCCC

>  <GROUP>
no

$$$$
>  <COMPOUND>
CCCCC(CC)COC(=O)c1ccccc1C(=O)OCC(CC)CCCC (centres undefined)

>  <GROUP>
no

$$$$
>  <COMPOUND>
CCOP(=S)(OCC)SCn1c(=O)oc2cc(Cl)ccc21

>  <GROUP>
no

$$$$
>  <COMPOUND>
CC(C)(C)c1ccc(CSc2cnn(C(C)(C)C)c(=O)c2Cl)cc1

>  <GROUP>
no

$$$$
>  <COMPOUND>
COc1ccc(C(c2ccc(OC)cc2)C(Cl)(Cl)Cl)cc1

>  <GROUP>
no

$$$$

For `CCCCNC(=O)OCC#CI` , which call appears in the assay record?
yes

For OC(c1ccc(Cl)cc1)(c1cncnc1)c1ccccc1Cl (centres undefined) , which call appears in the assay record?
no

For `CCCN(CCC)c1c([N+](=O)[O-])cc(S(N)(=O)=O)cc1[N+](=O)[O-]` , which call appears in the assay record?
yes

For `CON(C)C(=O)Nc1ccc(Cl)c(Cl)c1` , which call appears in the assay record?
no

====

TEST_NAME: BSK_4H_Eotaxin3: BioMAP Diversity Plus: 4H Assay for Eotaxin 3 Biomarker Activity (AID 2283000)
SETTINGS: primary human endothelial cells (HUVEC); actives raise or lower the signal
Active and inactive are the calls of the source. The calls were made as follows: active = hit-call score of the fitted dose curve at least 0.9, where 1 is the maximum; inactive = score below 0.9.
Use one of these outcomes when replying: active, inactive

>  <COMPOUND>
O=C(Nc1ccccc1)Nc1ccnc(Cl)c1

>  <GROUP>
inactive

$$$$
>  <COMPOUND>
CCCN(CCC)c1c([N+](=O)[O-])cc(S(N)(=O)=O)cc1[N+](=O)[O-]

>  <GROUP>
active

$$$$
>  <COMPOUND>
CCCC1COC(Cn2cncn2)(c2ccc(Cl)cc2Cl)O1 (configuration not stated)

>  <GROUP>
inactive

$$$$
>  <COMPOUND>
CCCCNC(=O)n1c(NC(=O)OC)nc2ccccc21

>  <GROUP>
inactive

$$$$
>  <COMPOUND>
CO/C=C(/C(=O)OC)c1ccccc1Oc1cc(Oc2ccccc2C#N)ncn1

>  <GROUP>
active

$$$$

For `CNC(=O)ON=CC(C)(C)SC` , which call appears in the assay record?
inactive

For `COc1ccc(C(c2ccc(OC)cc2)C(Cl)(Cl)Cl)cc1` , which call appears in the assay record?
inactive

For `COC(=O)N(OC)c1ccccc1COc1ccn(-c2ccc(Cl)cc2)n1` , which call appears in the assay record?
active

For CC(C)C1(C)N=C(c2nc3ccccc3cc2C(=O)O)NC1=O (configuration not stated) , which call appears in the assay record?
inactive

For `CCNc1nc(Cl)nc(NCC)n1` , which call appears in the assay record?
inactive

For `N#Cc1cc(Br)c(O)c(Br)c1` , which call appears in the assay record?
inactive

For `CN(C)C(=S)SSC(=S)N(C)C` , which call appears in the assay record?
active

====

Read-out: Cytochrome P450 (CYP1A1), CYP1A1 (gene 1543)
TEST_NAME: LTEA_HepaRG_CYP1A1: Life Technologies and Expression Analysis (LTEA) Assay for Cytochrome P450 (CYP1A1) using HepaRG (AID 2283454)
SETTINGS: mRNA level, 48 h; actives raise or lower the signal
Active and inactive are the calls of the source. The calls were made as follows: active = hit-call score of the fitted dose curve at least 0.9, where 1 is the maximum; inactive = score below 0.9.
Use one of these outcomes when replying: active, inactive

Please review the following examples before continuing.
>  <MOLECULE>
O=C(O)COc1nc(Cl)c(Cl)cc1Cl

>  <GROUP>
active

$$$$
>  <MOLECULE>
CC1=C(C(=O)Nc2ccccc2)SCCO1

>  <GROUP>
active

$$$$
>  <MOLECULE>
CCCCC(CC)COC(=O)c1ccccc1C(=O)OCC(CC)CCCC (configuration not stated)

>  <GROUP>
active

$$$$
>  <MOLECULE>
CNC(=S)S

>  <GROUP>
active

$$$$
>  <MOLECULE>
COc1nc(NC(C)C)nc(NC(C)C)n1

>  <GROUP>
active

$$$$

Read the next record carefully.
For `CC(C)Oc1cc(-n2nc(C(C)(C)C)oc2=O)c(Cl)cc1Cl` , which call appears in the assay record?
active

====

Read-out: TIMP metallopeptidase inhibitor 1 (TIMP1), TIMP1 (gene 7076)
TEST_NAME: BSK_hDFCGF_TIMP1: BioMAP Diversity Plus: hDFCGF Assay for TIMP metallopeptidase inhibitor 1 (TIMP1) Biomarker Activity (AID 2283062)
SETTINGS: primary human foreskin fibroblasts; actives raise or lower the signal
Calls of active or inactive are those of the source. The calls were made as follows: active = hit-call score of the fitted dose curve at least 0.9, where 1 is the maximum; inactive = score below 0.9.
METRIC: AC50

>  <MOLECULE>
COc1nc(C)nc(NC(=O)NS(=O)(=O)c2ccccc2Cl)n1

>  <REPORTED_RESULT>
inactive

$$$$
>  <MOLECULE>
CO/C=C(/C(=O)OC)c1ccccc1Oc1cc(Oc2ccccc2C#N)ncn1

>  <REPORTED_RESULT>
inactive

$$$$
>  <MOLECULE>
O=C(Nc1ccccc1)Nc1ccnc(Cl)c1

>  <REPORTED_RESULT>
inactive

$$$$
>  <MOLECULE>
CCCC1COC(Cn2cncn2)(c2ccc(Cl)cc2Cl)O1 (configuration not stated)

>  <REPORTED_RESULT>
inactive

$$$$
>  <MOLECULE>
Cc1ccc(-c2c(Cl)nc(C#N)n2S(=O)(=O)N(C)C)cc1

>  <REPORTED_RESULT>
18.3 µM (active)

$$$$

# return recorded AC50 for input `COC(=O)N(OC)c1ccccc1COc1ccn(-c2ccc(Cl)cc2)n1`
inactive

# return recorded AC50 for input COP(N)(=O)SC (configuration not stated)
inactive

# return recorded AC50 for input `COc1ccc(C(c2ccc(OC)cc2)C(Cl)(Cl)Cl)cc1`
inactive

# return recorded AC50 for input `Oc1ccccc1-c1ccccc1`
inactive

# return recorded AC50 for input `CC(C)Oc1cc(-n2nc(C(C)(C)C)oc2=O)c(Cl)cc1Cl`
inactive

# return recorded AC50 for input `CS/C(C)=N/OC(=O)N(C)SN(C)C(=O)O/N=C(\C)SC`
inactive

# return recorded AC50 for input `Cc1cc(Cl)ccc1OCC(=O)O`
inactive

====

TARGET_UNDER_TEST: human Serotonin, 5-Hydroxytryptamine Receptor 5A (5HT5A), HTR5A (gene 3361)
TEST_NAME: NVS_GPCR_h5HT5A: NovaScreen (NVS) G Protein-Coupled Receptor Assay for human Serotonin, 5-Hydroxytryptamine Receptor 5A (5HT5A) (AID 2283251)
Results filed as inconclusive are left out. Active and inactive are the calls of the source. The calls were made as follows: active = hit-call score of the fitted dose curve at least 0.9, where 1 is the maximum; inconclusive = response in the unintended direction; inactive = score below 0.9.
Use one of these outcomes when replying: active, inactive

>  <MOLECULE>
CCCN(CCC)c1c([N+](=O)[O-])cc(S(N)(=O)=O)cc1[N+](=O)[O-]

>  <GROUP>
inactive

$$$$

For `O=C(Nc1ccccc1)Nc1ccnc(Cl)c1` , which call appears in the assay record?
active

For `Cc1cc(Cl)ccc1OCC(=O)O` , which call appears in the assay record?
inactive

For CCON=C(CC)C1=C(O)CC(c2c(C)cc(C)cc2C)CC1=O (stereo not given) , which call appears in the assay record?
inactive

For CC1COC(Cn2cncn2)(c2ccc(Oc3ccc(Cl)cc3)cc2Cl)O1 (stereo not given) , which call appears in the assay record?
active

For `CON(C)C(=O)Nc1ccc(Cl)c(Cl)c1` , which call appears in the assay record?
active

For OC(c1ccc(Cl)cc1)(c1cncnc1)c1ccccc1Cl (stereo not given) , which call appears in the assay record?
inactive

For `COc1nc(C)nc(NC(=O)NS(=O)(=O)c2ccccc2CCC(F)(F)F)n1` , which call appears in the assay record?
inactive

For `CCNc1nc(Cl)nc(NC(C)C)n1` , which call appears in the assay record?
inactive

For `COc1ccc(C(c2ccc(OC)cc2)C(Cl)(Cl)Cl)cc1` , which call appears in the assay record?
inactive

====

TEST_NAME: CEETOX_H295R_OHPREG: CeeTox H295R High-throughput Steroidogenesis Assay for OH-Pregnenolone (OHPREG) (AID 2283434)
SETTINGS: actives raise or lower the signal
The source made the active and inactive calls. Rule for the calls: active = hit-call score of the fitted dose curve at least 0.9, where 1 is the maximum; inactive = score below 0.9.

>  <MOLECULE>
Oc1ccccc1-c1ccccc1

>  <outcome>
inactive

$$$$
>  <MOLECULE>
CC1COC(Cn2cncn2)(c2ccc(Oc3ccc(Cl)cc3)cc2Cl)O1 (stereo not drawn)

>  <outcome>
inactive

$$$$
>  <MOLECULE>
Cc1cc(Cl)ccc1OCC(=O)O

>  <outcome>
inactive

$$$$
